System: HCT-116 colon
assayMethodText: NCI tumour cell line growth inhibition, 48 h
Overview of recorded GI50 for various compounds
measurementLabel: GI50

INSERT INTO assay_data (compound, measurementlabel, testresult) VALUES
  ('O=NN(CC(=O)NNc1ccccc1)CC(=O)NNc1ccccc1', 'GI50', '> 100 µM'),
  ('CCCOC(=O)C1C(c2ccc(OC)cc2)NC(c2ccc(OC)cc2)C(C(=O)OCCC)S1(=O)=O (stereo not given)', 'GI50', '> 100 µM'),
  ('CCOC(=O)c1ccc(N[C@@H]2c3cc4c(cc3C(c3cc(OC)c(O)c(OC)c3)[C@H]3C(=O)OCC32)OCO4)cc1 (stereo not given in full)', 'GI50', '0.835 µM'),
  ('C(#Cc1ccccc1C#Cc1cnccn1)c1cnccn1', 'GI50', '27.8 µM'),
  ('O=C(N/N=C/c1coc2ccc(Cl)cc2c1=O)c1cc(O)c(O)c(O)c1', 'GI50', '19.3 µM'),
  ('O=C(Nc1cccc2[nH]c(C(F)(F)F)nc12)c1ccc(Br)cc1F', 'GI50', '3.16 µM'),
  ('Nc1ncnc2c1ncn2C1OC(F)(COS(N)(=O)=O)C(O)C1O (stereo not given)', 'GI50', '> 100 µM'),
  ('CCOC(=O)c1nc2sc(Cl)cn2c1/C=N/N=C(N)N', 'GI50', '18 µM'),
  ('CC(=O)OC1C(C)OC(Oc2c(-c3ccc(O)cc3)oc3cc(O)cc(O)c3c2=O)C(O)C1OC(C)=O (stereo not given)', 'GI50', '35.1 µM'),
  ('CC1=C(C(=O)Nc2cc(F)c(F)cc2F)C(c2ccc(N(C)C)cc2)C(C(=O)Nc2cc(F)c(F)cc2F)=C(C)N1', 'GI50', '30.4 µM');

###

System: A498 renal
assayMethodText: NCI tumour cell line growth inhibition, 48 h
measurementLabel: TGI

INSERT INTO measurements (molecule, testresult) VALUES
  ('CC(=O)OC1C(C)OC(Oc2c(-c3ccc(O)cc3)oc3cc(O)cc(O)c3c2=O)C(O)C1OC(C)=O (centres undefined)', '> 100 µM'),
  ('COc1ccc2[nH]c(=O)cc(C)c2c1[N+](=O)[O-]', '> 100 µM'),
  ('CSc1nc2c(ncn2C2OC(CO)C(O)C(O)C2O)c(=O)n1C (centres undefined)', '> 100 µM'),
  ('COc1ccccc1OC/C(N=Cc1cccnc1)=N/NC(=O)c1ccncc1', '> 100 µM'),
  ('O=C1C2C3C=CC(C2C(=O)N1CN1CCOCC1)C1C2C(=O)N(CN4CCOCC4)C(=O)C2C31 (centres undefined)', '> 100 µM'),
  ('COC(=O)/C=C1/OC(c2ccccc2)=C(Br)C1=O', '> 100 µM'),
  ('COc1cc(CNc2ccc(C)cc2)cc(OC)c1OC', '> 74.2 µM'),
  ('CCOP(=O)(OCC)/C(C#N)=C/c1cccn1C', '> 100 µM'),
  ('COc1cccc2c1C(=O)c1c(O)c3c(c(O)c1C2=O)C[C@@](O)(C(=O)CO)C[C@@H]3OC1CC2C(OCN2CN2COC3C(C)OC(O[C@H]4C[C@](O)(C(=O)CO)Cc5c(O)c6c(c(O)c54)C(=O)c4c(OC)cccc4C6=O)CC32)C(C)O1 (some centres undefined)', '0.0821 µM');

###

As shown below, each of these compounds has a reported TGI value.
Tested on: DMS 114 small cell lung
assayMethodText: NCI tumour cell line growth inhibition, 48 h
measurementLabel: TGI

INSERT INTO measurements (compound, testresult) VALUES
  ('Cc1c2cnccc2c(C)c2c1c1ccccc1n2CCCCCCCl', '> 50 µM'),
  ('COc1cc(Br)c(/C=N/N=C(\N)NO)cc1OC', '33.6 µM'),
  ('O=C(OCc1ccccc1)N1N=NC2C3CC(OCc4ccccc4)(OCc4ccccc4)C(O3)C21 (stereo not given)', '53.1 µM'),
  ('O=C1C=C(c2ccccc2)NC1(c1ccccc1)c1cc(-c2ccccc2)[nH]c1-c1ccccc1 (stereo not given)', '> 100 µM'),
  ('NNC(=O)C(=O)N/N=C1\CCCC1C(=O)CCC(=O)Nc1cccc(Cl)c1 (stereo not given)', '> 100 µM'),
  ('O=C1c2ccccc2C(=O)N1CCN(CCN1C(=O)c2ccccc2C1=O)Cc1ccccc1', '> 100 µM'),
  ('C=C1C(=O)OC2/C=C(CO)/C=C\C3OC3(C)CC(OC(=O)/C(C)=C/COC(C)=O)C12 (stereo not given)', '10.9 µM'),
  ('O=C1/C(=C/c2ccccc2)CN(C(=O)/C=C/c2ccccc2)C/C1=C\c1ccccc1', '> 43.8 µM'),
  ('Cc1nsc2cc(Cl)n(C)c(=O)c12', '> 100 µM'),
  ('COc1ccc(-c2cc(-c3ccco3)c(C#N)c(=O)n2C2OC(COC(C)=O)C(OC(C)=O)C(OC(C)=O)C2OC(C)=O)cc1 (stereo not given)', '> 100 µM');

###

Tested on: UACC-257 melanoma
assayMethodText: NCI tumour cell line growth inhibition, 48 h; in the data active = GI50 below about 0.43 µM; inactive = the rest
Outcomes: active, inactive

INSERT INTO results (compound, class) VALUES
  ('O=C1C=CC(=O)N1c1ccc2ccccc2c1', 'inactive'),
  ('O=C1/C(=C/c2ccc([N+](=O)[O-])s2)Oc2ccc(Br)cc21', 'inactive'),
  ('CC[C@@]1(O)C(=O)OCc2c1cc1n(c2=O)Cc2cc3c(N)c(OC)ccc3nc2-1', 'active'),
  ('CCCCCCCCCCCCNCCCc1ccccc1', 'inactive'),
  ('Nc1ccccc1SC(CC(=O)c1ccccc1)c1c(Cl)cccc1Cl (stereo unspecified)', 'inactive'),
  ('Nc1ncnc2occ(-c3ccc(NC(=O)Nc4cccc(C(F)(F)F)c4)cc3)c12', 'inactive'),
  ('COc1cccc(C2=C(c3cn(C)c4c(C)cccc34)C(=O)NC2=O)c1', 'inactive'),
  ('O=NN(CC(=O)NNc1ccccc1)CC(=O)NNc1ccccc1', 'inactive'),
  ('O=C(N/N=C/c1coc2ccc(Cl)cc2c1=O)c1cc(O)c(O)c(O)c1', 'inactive'),
  ('O=C(Nc1cccc2[nH]c(C(F)(F)F)nc12)c1ccc(Br)cc1F', 'inactive'),
  ('O=C(NCCc1nccs1)c1cnc2c(S)cccc2c1', 'inactive');

###

Form field: TGI (one value per entry).
Test system: HOP-62 NSCLC
assayMethodText: NCI tumour cell line growth inhibition, 48 h
measurementLabel: TGI (µM)

INSERT INTO results (compound, subjectoftest, measurementlabel, measureunit, resultcomparator, testresult) VALUES
  ('CC1=CC2=C(C=O)C(=O)[C@](C)(O)[C@@H](O)C2=CO1', 'HOP-62 NSCLC', 'TGI', 'µM', '=', 69),
  ('COc1ccc(-c2c(C#N)c(N)nc(Sc3ccccc3N)c2C#N)cc1', 'HOP-62 NSCLC', 'TGI', 'µM', '=', 32.6),
  ('O=NN(CC(=O)NNc1ccccc1)CC(=O)NNc1ccccc1', 'HOP-62 NSCLC', 'TGI', 'µM', '>', 100),
  ('C=C1C(=O)OC2/C=C(CO)/C=C\C3OC3(C)CC(OC(=O)/C(C)=C/COC(C)=O)C12 (configuration not stated)', 'HOP-62 NSCLC', 'TGI', 'µM', '=', 35.5),
  ('Cc1nc2ccccc2c(/C=C/c2ccc(F)cc2)c1C(=O)/C=C/c1ccccc1', 'HOP-62 NSCLC', 'TGI', 'µM', '=', 4.27),
  ('Cc1ncc2c(n1)CCC1=C2OS(=O)(=O)CC1N(C)C (configuration not stated)', 'HOP-62 NSCLC', 'TGI', 'µM', '>', 100),
  ('CCOC(=O)/C(=C\n1c(=O)sc2ccccc21)C(=O)c1ccccc1', 'HOP-62 NSCLC', 'TGI', 'µM', '>', 100),
  ('COC(=O)/C=C1/OC(c2ccccc2)=C(Br)C1=O', 'HOP-62 NSCLC', 'TGI', 'µM', '>', 100),
  ('C=Cc1c(-c2ccccc2)cnc2[nH]c3ccccc3c12', 'HOP-62 NSCLC', 'TGI', 'µM', '>', 50),
  ('COC(=O)c1ccc(C)cc1C1CN=NC12Cc1c(C)cccc1C2=O (configuration not stated)', 'HOP-62 NSCLC', 'TGI', 'µM', '>', 100),
  ('Cc1c2cnccc2c(C)c2c1c1ccccc1n2CCCCCCCl', 'HOP-62 NSCLC', 'TGI', 'µM', '>', 50),
  ('CC(C)CC1CC2C(=O)N(c3ccccc3)C(=O)C2c2[nH]c3ccccc3c21 (configuration not stated)', 'HOP-62 NSCLC', 'TGI', 'µM', '=', 47.8),
  ('CC[C@@]1(O)C(=O)OCc2c1cc1n(c2=O)Cc2cc3c(N)c(OC)ccc3nc2-1', 'HOP-62 NSCLC', 'TGI', 'µM', '=', 0.037),
  ('NC(=O)c1c(-c2ccccc2)c(-c2ccccc2)cc2c(=O)c3ccccc3[nH]c12', 'HOP-62 NSCLC', 'TGI', 'µM', '=', 58.5),
  ('CCCOC(=O)C1C(c2ccc(OC)cc2)NC(c2ccc(OC)cc2)C(C(=O)OCCC)S1(=O)=O (configuration not stated)', 'HOP-62 NSCLC', 'TGI', 'µM', '>', 100),
  ('C=CC(=O)N1CCN(c2nc(OC[C@@H]3CCCN3C)nc3c(F)c(-c4nc(N)cc(C)c4C(F)(F)F)c(Cl)cc23)[C@@H](C)C1', 'HOP-62 NSCLC', 'TGI', 'µM', '=', 13.1),
  ('O=C1C2C3C=CC(C2C(=O)N1CN1CCOCC1)C1C2C(=O)N(CN4CCOCC4)C(=O)C2C31 (configuration not stated)', 'HOP-62 NSCLC', 'TGI', 'µM', '>', 100),
  ('CSc1nc2c(ncn2C2OC(CO)C(O)C(O)C2O)c(=O)n1C (configuration not stated)', 'HOP-62 NSCLC', 'TGI', 'µM', '>', 100),
  ('O=C(O)CNc1ncc2c(n1)-c1ccccc1OC2', 'HOP-62 NSCLC', 'TGI', 'µM', '>', 100),
  ('C(#Cc1ccccc1C#Cc1cnccn1)c1cnccn1', 'HOP-62 NSCLC', 'TGI', 'µM', '=', 85.8),
  ('COc1ccc(C)cc1NC(=S)N/N=C/c1ccco1', 'HOP-62 NSCLC', 'TGI', 'µM', '>', 100),
  ('O=[N+]([O-])C(=C1c2ccccc2-c2ccccc21)[N+](=O)[O-]', 'HOP-62 NSCLC', 'TGI', 'µM', '>', 100);
